- MEASUREMENT_PROTOCOL: Antioxidant activity assessed as DPPH free radical scavenging activity at 100 uM incubated for 60 mins by spectrophotometric method relative to control
- Assay type: functional
QUANTITY_NAME: Activity (%)
One number for each entry, in %.

Previously resolved entries follow.
SMILES_INPUT | RESULT
O=C(N/N=C/c1ccc(Oc2nc(Oc3ccc(/C=N/NC(=O)c4ccccc4O)cc3)nc(Oc3ccc(/C=N/NC(=O)c4ccccc4O)cc3)n2)cc1)c1ccccc1O | 0
O=C(N/N=C/c1ccc(Oc2nc(Oc3ccc(/C=N/NC(=O)c4ccccc4)cc3)nc(Oc3ccc(/C=N/NC(=O)c4ccccc4)cc3)n2)cc1)c1ccccc1 | 0.9

Here is another compound to look at.
Q: Please report the recorded Activity for O=C(N/N=C/c1ccc(Oc2nc(Oc3ccc(/C=N/NC(=O)c4cccc(O)c4)cc3)nc(Oc3ccc(/C=N/NC(=O)c4cccc(O)c4)cc3)n2)cc1)c1cccc(O)c1 .
Result: 4.2
